Reference source for all entries: patent US20230094952A1

Tested on: mouse long-term hematopoietic stem cells
assay-details: Reproducibility and concentration dependence test: 1-week culture of sorted Hoxb5-tri-mCherry mouse long-term hematopoietic stem cells, flow cytometry
Type: cell-based
study-conditions: Table 3; compound 1 μM; day 7 of culture; n=2
Binary call on mCherry-positive rate with cut-off 90%: strictly below means Yes, and equality or higher means No.

compound	category-label
CCO[C@H]1O[C@@H]2O[C@@]3(C)CC[C@H]4[C@H](C)CC[C@@H]([C@H]1C)[C@@]24OO3 [Example 1-31, artemotil, reference compound]	No
C[C@H]1[C@@H](O)O[C@@H]2O[C@@]3(C)CC[C@H]4[C@H](C)CC[C@@H]1[C@@]24OO3 [Example 1-29, artenimol, reference compound]	Yes
CO[C@H]1O[C@@H]2O[C@@]3(C)CC[C@H]4[C@H](C)CC[C@@H]([C@H]1C)[C@@]24OO3 [Example 1-30, artemether, reference compound]	Yes
C[C@@H]1CC[C@H]2[C@@H](C)C(=O)O[C@@H]3O[C@@]4(C)CC[C@@H]1[C@]32OO4 [Example 1-33, artemisinin, reference compound]	Yes

###

System: mouse long-term hematopoietic stem cells
assay-details: Reproducibility and concentration dependence test: 1-week culture of sorted Hoxb5-tri-mCherry mouse long-term hematopoietic stem cells, flow cytometry
Type: cell-based
study-conditions: Table 4; compound 0.1 μM; day 7 of culture; n=2
Source text: Mice with insertion of a nucleic acid sequence containing three copies of a gene encoding the fluorescent protein mCherry to the C terminus of the mouse endogenous HoxB5 gene (Hoxb5-tri-mCherry) were used (triple-mCherry Hoxb5 knock-in mice; Non Patent Literature 1). […]
Reported mCherry-positive rate by item:
measured-parameter: mCherry-positive rate (%)

compound	measured-parameter	obs-value
CO[C@@H]1O[C@@H]2O[C@@]3(C)CC[C@H]4[C@H](C)CC[C@@H]([C@H]1C)[C@@]24OO3	mCherry-positive rate	3.0
COCCO[C@H]1O[C@@H]2O[C@@]3(C)CC[C@H]4[C@H](C)CC[C@@H]([C@H]1C)[C@@]24OO3	mCherry-positive rate	17.9
CO[C@H]1O[C@@H]2O[C@@]3(C)CC[C@H]4[C@H](C)CC[C@@H]([C@H]1C)[C@@]24OO3 [Example 1-30, artemether, reference compound]	mCherry-positive rate	71.2

###

System: mouse long-term hematopoietic stem cells
assay-details: Reproducibility and concentration dependence test: 1-week culture of sorted Hoxb5-tri-mCherry mouse long-term hematopoietic stem cells, flow cytometry
Assay type: cell-based
study-conditions: Table 4; compound 3 μM; day 7 of culture; n=2
measured-parameter: log10 Viable cell count (log10 of the value in cell)

compound	log10 Viable cell count
CC(=O)N[C@@H]1O[C@@H]2O[C@@]3(C)CC[C@H]4[C@H](C)CC[C@@H]([C@H]1C)[C@@]24OO3	2.76
CC(=O)OCCO[C@@H]1O[C@@H]2O[C@@]3(C)CC[C@H]4[C@H](C)CC[C@@H]([C@H]1C)[C@@]24OO3	0.78
COCCO[C@H]1O[C@@H]2O[C@@]3(C)CC[C@H]4[C@H](C)CC[C@@H]([C@H]1C)[C@@]24OO3	2.40
C[C@H]1[C@@H](OC2CCCCC2)O[C@@H]2O[C@@]3(C)CC[C@H]4[C@H](C)CC[C@@H]1[C@@]24OO3	-0.30
C[C@H]1[C@H](CN)O[C@@H]2O[C@@]3(C)CC[C@H]4[C@H](C)CC[C@@H]1[C@@]24OO3	2.19
CCO[C@H]1O[C@@H]2O[C@@]3(C)CC[C@H]4[C@H](C)CC[C@@H]([C@H]1C)[C@@]24OO3 [Example 1-31, artemotil, reference compound]	0.40
